biological target: human LPA1 (Homo sapiens, UniProt Q92633); assay: LPA1 functional antagonist assay (calcium flux); conditions: CHO cells overexpressing human LPA1; inhibition of calcium flux induced by 10 nM LPA; read-out: hLPA1 IC50
Sequence (Q92633 whole entry): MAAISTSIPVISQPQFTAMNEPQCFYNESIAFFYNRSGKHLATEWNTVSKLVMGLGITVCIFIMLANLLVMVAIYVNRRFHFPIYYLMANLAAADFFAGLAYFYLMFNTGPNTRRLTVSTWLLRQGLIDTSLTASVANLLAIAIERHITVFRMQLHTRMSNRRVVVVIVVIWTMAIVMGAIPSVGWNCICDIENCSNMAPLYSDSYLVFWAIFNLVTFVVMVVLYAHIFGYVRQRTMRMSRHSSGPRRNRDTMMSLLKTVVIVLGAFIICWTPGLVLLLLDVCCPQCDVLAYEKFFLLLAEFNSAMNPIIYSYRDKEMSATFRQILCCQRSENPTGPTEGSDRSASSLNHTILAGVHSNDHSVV
pIC50: −log10 of the molar value.
Endpoint name: pIC50

a. Cc1nc(-c2nnn(C)c2CNc2nccc(COC(C)C)n2)ccc1O[C@H]1CCC[C@H](C(=O)O)C1
b. COc1cc(NCc2c(-c3ccc(O[C@H]4CCC[C@H](C(=O)O)C4)c(C)n3)nnn2C)ncn1
Hi there! Just curious which has the higher pIC50 between a and b . # reply format: chosen label
a

A. Cc1nc(-c2nnn(C)c2CNc2nccc(C3(C)CC(F)(F)C3)n2)ccc1O[C@H]1CCC[C@H](C(=O)O)C1
B. Cc1cc(OC(C)C)nc(NCc2c(-c3ccc(O[C@H]4CCC[C@H](C(=O)O)C4)c(C)n3)nnn2C)n1
Hi there! Just curious which has the higher pIC50 between A and B . # reply format: chosen label
B
(B: 7.54, A: 7.26)

---

target: human LPA1 (Homo sapiens, UniProt Q92633); test: LPA1 functional antagonist assay (calcium flux); conditions: CHO cells overexpressing human LPA1; inhibition of calcium flux induced by 10 nM LPA; read-out: hLPA1 IC50
pIC50: −log10 of the molar value. Structures can show the parent of a compound that is named as a salt.
Endpoint name: pIC50

Molecule	pIC50
Cc1nc(-c2nnn(C)c2CNc2nccc(OC3CCCC3)n2)ccc1O[C@H]1CCC[C@H](C(=O)O)C1	6.96

I. CCCc1ccnc(Nc2c(-c3ccc(O[C@H]4CCC[C@H](C(=O)O)C4)c(C)n3)nnn2C)n1
II. CCCCc1cnnc(NCc2c(-c3ccc(O[C@H]4CCC[C@H](C(=O)O)C4)c(C)n3)nnn2C)n1 [Example 193, bis TFA]
Hi there! Just curious which has the higher pIC50 between I and II . # reply format: chosen label
II

---

molecular target: human LPA1 (Homo sapiens); assay: LPA1 functional antagonist assay (calcium flux); details: CHO cells overexpressing human LPA1; inhibition of calcium flux induced by 10 nM LPA; read-out: hLPA1 IC50
Endpoint name: IC50 (µM)

Compound	IC50, µM
Cc1nc(-c2nnn(C)c2CNc2ncc(F)c(NCCC(C)C)n2)ccc1O[C@H]1CCC[C@H](C(=O)O)C1	0.063
Cc1nc(-c2nnn(C)c2CNc2ncnc(CCC(C)(C)C)n2)ccc1O[C@H]1CCC[C@H](C(=O)O)C1	0.12
Cc1nc(-c2nnn(C)c2CNc2ncnc(OC3CC3)n2)ccc1O[C@H]1CCC[C@H](C(=O)O)C1	0.102
Cc1nc(-c2nnn(C)c2CNc2cc(C(F)(F)F)ncn2)ccc1O[C@H]1CCC[C@H](C(=O)O)C1	0.139
Cc1nc(-c2nnn(C)c2COc2nccc(OC(C)C)n2)ccc1O[C@H]1CCC[C@H](C(=O)O)C1 (single isomer, unassigned)	0.041
Cc1nc(-c2nnn(C)c2COc2nccc(C(F)(F)F)n2)ccc1O[C@H]1CCC[C@H](C(=O)O)C1	0.011
Cc1cc(-c2ccccc2C#N)nc(NCc2c(-c3ccc(O[C@H]4CCC[C@H](C(=O)O)C4)c(C)n3)nnn2C)n1	0.058
Cc1nc(-c2nnn(C)c2CNc2nccc(C3CCCC3)n2)ccc1O[C@H]1CCC[C@H](C(=O)O)C1	0.012

A. Cc1nc(-c2nnn(C)c2COc2nccc(-n3cccn3)n2)ccc1O[C@H]1CCC[C@H](C(=O)O)C1
B. Cc1nc(-c2nnn(C)c2CNc2nccc(NCCc3ccccc3)n2)ccc1O[C@H]1CCC[C@H](C(=O)O)C1
Given the two records A and B , choose the one whose IC50 value is lower. # reply format: chosen label
B
(B: 0.086 µM, A: 0.335 µM)

---

biological target: human LPA1 (Homo sapiens); assay: LPA1 functional antagonist assay (calcium flux); conditions: CHO cells overexpressing human LPA1; inhibition of calcium flux induced by 10 nM LPA; read-out: hLPA1 IC50
Counter-ions that a name gives are not always drawn.
Endpoint name: IC50 (nM)

Compound	Study target	Experimental result
Cc1nc(-c2nnn(C)c2CNc2ncnc(C3CC3)n2)ccc1O[C@H]1CCC[C@H](C(=O)O)C1 [Example 187, bis TFA Salt]	human LPA1 (Homo sapiens)	48
Cc1nc(-c2nnn(C)c2CNc2cc(C3CC3)cnn2)ccc1O[C@H]1CCC[C@H](C(=O)O)C1	human LPA1 (Homo sapiens)	278
Cc1nc(-c2nnn(C)c2CNc2nccc(C(C)(C)CF)n2)ccc1O[C@H]1CCC[C@H](C(=O)O)C1	human LPA1 (Homo sapiens)	22
Cc1ccc(Oc2ccnc(NCc3c(-c4ccc(O[C@H]5CCC[C@H](C(=O)O)C5)c(C)n4)nnn3C)n2)cc1	human LPA1 (Homo sapiens)	226
Cn1nnc(-c2ccc(O[C@H]3CCC[C@H](C(=O)O)C3)cn2)c1CNc1nccc(-n2cccn2)n1	human LPA1 (Homo sapiens)	1130

1. CSc1ccnc(OCc2c(-c3ccc(O[C@H]4CCC[C@H](C(=O)O)C4)c(C)n3)nnn2C)n1
2. Cn1nnc(-c2cnc(O[C@H]3CCC[C@H](C(=O)O)C3)cn2)c1CNc1nccc(-c2ccccc2)n1
Given the two records 1 and 2 , choose the one whose IC50 value is lower. # reply format: chosen label
1
(1: 7.9 nM, 2: 26 nM)

---

Molecular target: human LPA1 (Homo sapiens)
Experiment: LPA1 functional antagonist assay (calcium flux)
Details: CHO cells overexpressing human LPA1; inhibition of calcium flux induced by 10 nM LPA; read-out: hLPA1 IC50
Procedure: The effectiveness of compounds of the present invention as LPA1 inhibitors can be determined in an LPA1 functional antagonist assay as follows: Chinese hamster ovary cells overexpressing human LPA1 were plated overnight (15,000 cells/well) in poly-D-lysine coated 384-well microplates (Greiner bio-one, Cat #781946) in DMEM/F12 medium (Gibco, Cat #11039). […] IC50 values were determined by fitting data to a 4-parameter logistic equation (GraphPad Prism, San Diego Calif.).
pIC50: −log10 of the molar value.
Endpoint name: pIC50

Compound	pIC50
Cc1nc(-c2nnn(C)c2COc2cc(OCCOC(C)C)ncn2)ccc1O[C@H]1CCC[C@H](C(=O)O)C1	6.28

P. COc1ccccc1-c1ccnc(NCc2c(-c3ccc(O[C@H]4CCC[C@H](C(=O)O)C4)c(C)n3)nnn2C)n1
Q. Cc1nc(-c2nnn(C)c2CNc2cccc(C3CC3)n2)ccc1O[C@H]1CCC[C@H](C(=O)O)C1
R. Cc1nc(-c2nnn(C)c2COc2cncc(C(F)(F)F)n2)ccc1O[C@H]1CCC[C@H](C(=O)O)C1
S. Cc1nc(-c2nnn(C)c2CNc2nccc(C3CCC3)n2)ccc1O[C@H]1CCC[C@H](C(=O)O)C1
Rank items: key pIC50, increasing. Dear reader, please state the labels in the requested order.
Q, P, R, S
(Q: 6.27, P: 6.66, R: 7.00, S: 7.96)

a. CCc1nc(-c2nnn(C)c2CNc2nccc(OC)n2)ccc1O[C@H]1CCC[C@H](C(=O)O)C1
b. Cc1nc(-c2nnn(C)c2CNc2nccc(OC(C)C(F)(F)F)n2)ccc1O[C@H]1CCC[C@H](C(=O)O)C1 (some centres unmarked)
Hi there! Just curious which has the higher pIC50 between a and b . # reply format: chosen label
b
(b: 6.61, a: 6.34)

P. Cc1nc(-c2nnn(C)c2CNc2ncccc2OC(C)C)ccc1O[C@H]1CCC[C@H](C(=O)O)C1
Q. Cc1nc(-c2nnn(C)c2Nc2nccc(OC3CC3)n2)ccc1O[C@H]1CCC[C@H](C(=O)O)C1
R. CCc1cc(OCc2c(-c3ccc(O[C@H]4CCC[C@H](C(=O)O)C4)c(C)n3)nnn2C)ncn1
Sequence the entries by pIC50, beginning with the highest number. Dear reader, please state the labels in the requested order.
R, Q, P
(R: 7.66, Q: 6.67, P: 6.35)

---

target: human LPA1 (Homo sapiens, UniProt Q92633); experiment: LPA1 functional antagonist assay (calcium flux); settings: CHO cells overexpressing human LPA1; inhibition of calcium flux induced by 10 nM LPA; read-out: hLPA1 IC50
pIC50: −log10 of the molar value.
Endpoint name: pIC50

COC(=O)c1cc(C(C)(C)C)nc(NCc2c(-c3ccc(O[C@H]4CCC[C@H](C(=O)O)C4)c(C)n3)nnn2C)n1 6.35

1. Cc1nc(-c2nnn(C)c2Nc2nccc(OCC(F)(F)F)n2)ccc1O[C@H]1CCC[C@H](C(=O)O)C1
2. COCCCOc1ccnc(NCc2c(-c3ccc(O[C@H]4CCC[C@H](C(=O)O)C4)c(C)n3)nnn2C)n1
Hi there! Just curious which has the higher pIC50 between 1 and 2 . # reply format: chosen label
1
(1: 7.38, 2: 7.11)

P. CCCCc1ncnc(NCc2c(-c3ccc(O[C@H]4CCC[C@H](C(=O)O)C4)c(C)n3)nnn2C)n1
Q. Cc1nc(-c2nnn(C)c2CNc2ncc(F)c(Nc3ccccc3)n2)ccc1O[C@H]1CCC[C@H](C(=O)O)C1
Given the two records P and Q , choose the one whose pIC50 value is lower. # reply format: chosen label
Q

a. CCCc1cccc(Nc2c(-c3ccc(O[C@H]4CCC[C@H](C(=O)O)C4)c(C)n3)nnn2C)n1
b. Cc1nc(-c2nnn(C)c2CNc2nccc(Oc3ccccn3)n2)ccc1O[C@H]1CCC[C@H](C(=O)O)C1
Hi there! Just curious which has the higher pIC50 between a and b . # reply format: chosen label
a
(a: 7.96, b: 6.72)

1. COc1cc(OCc2c(-c3ccc(O[C@H]4CCC[C@H](C(=O)O)C4)c(C)n3)nnn2C)nc(OC)n1
2. CCCc1cccc(NCc2c(-c3ccc(O[C@H]4CCC[C@H](C(=O)O)C4)c(C)n3)nnn2C)n1
Given the two records 1 and 2 , choose the one whose pIC50 value is lower. # reply format: chosen label
1
(1: 6.85, 2: 7.57)
